# Test system: biotinyl-Ile-oxazolone
# ASSAY_NOTES: self-aminoacylation, catalytic enhancement (BIO) (fold over background); higher = more active; k-Seq, kA / k0A0; sequences stand for … in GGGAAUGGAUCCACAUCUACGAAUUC…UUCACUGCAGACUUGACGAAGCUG
Fewer inactive variants are shown than the library holds.
self-aminoacylation values by entry
Reply: number alone, nothing else.

AAGUUUGCUAAUAGGUGCAAG [Fam3.1 aminoacylation ribozyme variant] :: 0.728
AUUCACCUAUGUCAUCCGGUG [Fam2.2 aminoacylation ribozyme variant] :: 3.78
AUUCACCUAGGUCUUCGGGGG [Fam2.2 aminoacylation ribozyme variant] :: 3.04
AUUACCCUGGUCAUUCAGUGA [Fam2.1 aminoacylation ribozyme variant] :: 3.33
AUUCCCCUAGGGCAUCGGGUG [Fam2.2 aminoacylation ribozyme variant] :: 7.87

Task item: Provide the documented self-aminoacylation with biotinyl-Ile-oxazolone as the system for CCAGACUUCAAGCAAUCGGCC [Fam1B.1 aminoacylation ribozyme variant]
Reply: 3.33

Task item: Quick one: UAUUUUGCUAAUAGUCGCAAG [Fam3.1 aminoacylation ribozyme variant]
Reply: 1.75

Task item: Quick one: CUACUUCAGAGAAUCGGUCUG [Fam1A.1 aminoacylation ribozyme variant]
Reply: 0.846

Task item: Quick one: AUUACCCUGGGCAUCCAGUGA [Fam2.1 aminoacylation ribozyme variant]
Reply: 3.76

---

self-aminoacylation values by entry
# System: biotinyl-Met-oxazolone
# ASSAY_NOTES: self-aminoacylation, catalytic enhancement (BMO) (fold over background); higher = more active; k-Seq, kA / k0A0; sequences stand for … in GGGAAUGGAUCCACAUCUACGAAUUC…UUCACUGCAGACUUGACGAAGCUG
Fewer inactive variants are shown than the library holds.
Reply: number alone, nothing else.

CUACUCCAAACUAUCGGUCUG [Fam1A.1 aminoacylation ribozyme variant] :: 0.806
CCACGCUUCAACCAAUCGGUC [Fam1B.1 aminoacylation ribozyme variant] :: 1.37
CUACUUCAAACACUCGGACUG [Fam1A.1 aminoacylation ribozyme variant] :: 1.01
AGGUUUGCUAAUAGUCGAAAG [Fam3.1 aminoacylation ribozyme variant] :: 1.16
GAGUUCGCUAAUAGUCGCAAG [Fam3.1 aminoacylation ribozyme variant] :: 1.91
AAGUUUGCUAAGAGUCGGAAG [Fam3.1 aminoacylation ribozyme variant] :: 0.956
CCACACUUCAAGCGAUCGGAC [Fam1B.1 aminoacylation ribozyme variant] :: 1.33
AUUACCCUGGUAAUUGAGUGA [Fam2.1 aminoacylation ribozyme variant] :: 16.2
AUUACCCUGGUCUUCUAGUGA [Fam2.1 aminoacylation ribozyme variant] :: 5.28
AUUCACCUAGAUCAUAGGGUG [Fam2.2 aminoacylation ribozyme variant] :: 3.97

Task item: Provide the documented self-aminoacylation with biotinyl-Met-oxazolone as the system for CCACACUUCAAGCUCUCGGUC [Fam1B.1 aminoacylation ribozyme variant]
Reply: 1.14

Task item: Quick one: UUUAUCCUGGUCAUCGAGUGA [Fam2.1 aminoacylation ribozyme variant]
Reply: 8.6

Task item: Quick one: AUUACCCUGUACAUCGAGUGA [Fam2.1 aminoacylation ribozyme variant]
Reply: 12.5

---

# System: biotinyl-Phe-oxazolone
# ASSAY_NOTES: self-aminoacylation, catalytic enhancement (BFO) (fold over background); higher = more active; k-Seq, kA / k0A0; sequences stand for … in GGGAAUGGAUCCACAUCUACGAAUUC…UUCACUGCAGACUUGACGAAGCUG
This sample holds only a part of the variants without activity.
self-aminoacylation values by entry
Reply: number alone, nothing else.

Task item: Recorded self-aminoacylation of AUUCCCCUAGGGCAUCGGGUG [Fam2.2 aminoacylation ribozyme variant] , please.
Reply: 42.8

Task item: Quick one: AUUCACAUAGGUCUUCGGGUG [Fam2.2 aminoacylation ribozyme variant]
Reply: 39.4

---

# System: biotinyl-Val-oxazolone
# ASSAY_NOTES: self-aminoacylation, catalytic enhancement (BVO) (fold over background); higher = more active; k-Seq, kA / k0A0; sequences stand for … in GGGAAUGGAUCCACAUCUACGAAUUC…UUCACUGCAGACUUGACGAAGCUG
Variants at the floor of the assay were thinned out.
Returns one of yes or no; yes when self-aminoacylation is >= 2.

AUUACGCUGAUCAUCGAGUGA [Fam2.1 aminoacylation ribozyme variant] :: yes
CCACACAUCAAGGAAUCGGUC [Fam1B.1 aminoacylation ribozyme variant] :: no
AUUACCCUUGCCAUCGAGUGA [Fam2.1 aminoacylation ribozyme variant] :: yes

Task item: Please check the record AAGGUUGCUAAUAGUCACAAG [Fam3.1 aminoacylation ribozyme variant] and state if its self-aminoacylation is at or above 2.
Reply: no

---

# System: biotinyl-Phe-oxazolone
# ASSAY_NOTES: self-aminoacylation, catalytic enhancement (BFO) (fold over background); higher = more active; k-Seq, kA / k0A0; sequences stand for … in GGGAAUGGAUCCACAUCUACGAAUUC…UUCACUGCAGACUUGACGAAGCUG
Variants at the floor of the assay were thinned out.
self-aminoacylation values by entry
Reply: number alone, nothing else.

// below: answered sequences
AUGCACCUAGGUCAUCGGGUU [Fam2.2 aminoacylation ribozyme variant] :: 5.22
UUACUUGAAACAAUCGGUCUG [Fam1A.1 aminoacylation ribozyme variant] :: 1.52
AACAUUGCUAAUAGUCGCAAG [Fam3.1 aminoacylation ribozyme variant] :: 2.9

Could you now consider this next sequence?
Task item: Recorded self-aminoacylation of CUACUUCAAACCAUAGGUCUG [Fam1A.1 aminoacylation ribozyme variant] , please.
Reply: 0.985

---

# Tested on: biotinyl-Met-oxazolone
# ASSAY_NOTES: self-aminoacylation, catalytic enhancement (BMO) (fold over background); higher = more active; k-Seq, kA / k0A0; sequences stand for … in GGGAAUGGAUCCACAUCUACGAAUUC…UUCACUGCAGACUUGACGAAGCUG
Variants at the floor of the assay were thinned out.
self-aminoacylation values by entry
Reply: number alone, nothing else.

// below: answered sequences
CCAGACUUCAAGCAACCGGUC [Fam1B.1 aminoacylation ribozyme variant] :: 0.698
AUUGCCCUGGUCAUCGAGUUA [Fam2.1 aminoacylation ribozyme variant] :: 4.84
AUUAGCCUGGUCAUCGCGUGA [Fam2.1 aminoacylation ribozyme variant] :: 21.7
CGACUUCAAACAAUCCGUCUG [Fam1A.1 aminoacylation ribozyme variant] :: 1.23
CCACACUUCAAGCACUCGAUC [Fam1B.1 aminoacylation ribozyme variant] :: 0.43
CCACAGUUCAAGCAAUCGGGC [Fam1B.1 aminoacylation ribozyme variant] :: 2.81
AUUCACCUCGGUCUUCGGGUG [Fam2.2 aminoacylation ribozyme variant] :: 3.71
AUUACCCUGGGCAUCGAAUGA [Fam2.1 aminoacylation ribozyme variant] :: 0.647

Task item: Provide the documented self-aminoacylation with biotinyl-Met-oxazolone as the system for AUUACCCUGGUCAACGAGUGG [Fam2.1 aminoacylation ribozyme variant]
Reply: 1.49

Task item: Quick one: CUACUUGAAACAACCGGUCUG [Fam1A.1 aminoacylation ribozyme variant]
Reply: 1.18

Task item: Quick one: CUUCUUCAAACAAUCGGUCUU [Fam1A.1 aminoacylation ribozyme variant]
Reply: 0.814

Task item: Quick one: CUACUUCUAACGAUCGGUCUG [Fam1A.1 aminoacylation ribozyme variant]
Reply: 0.747

Task item: Quick one: GUUCGCCUAGGUCAUCGGGUG [Fam2.2 aminoacylation ribozyme variant]
Reply: 18.9

Task item: Quick one: AAGUUUGCUAGUUGUCGCAAG [Fam3.1 aminoacylation ribozyme variant]
Reply: 0.898

Task item: Quick one: CCAGAAUUCAAGCAAUCGGUC [Fam1B.1 aminoacylation ribozyme variant]
Reply: 1.65

Task item: Quick one: AUUCACCUAGGUUCUCGGGUG [Fam2.2 aminoacylation ribozyme variant]
Reply: 2.88

Task item: Quick one: CUACUUCCAACAAUCGAUCUG [Fam1A.1 aminoacylation ribozyme variant]
Reply: 0.494

Task item: Quick one: CCACCUUUCAAGCAAUCGGUC [Fam1B.1 aminoacylation ribozyme variant]
Reply: 1.4

Task item: Quick one: CCACACCUCAAGCAAUCGCUC [Fam1B.1 aminoacylation ribozyme variant]
Reply: 2.85

Task item: Quick one: AUUUCCCUGGUCAUCGAGUGA [Fam2.1 aminoacylation ribozyme variant]
Reply: 14.3

Task item: Quick one: AAGUUUGGUAAUAGUCACAAG [Fam3.1 aminoacylation ribozyme variant]
Reply: 1.01

Task item: Quick one: CCACACGUCAAGCAAUCGUUC [Fam1B.1 aminoacylation ribozyme variant]
Reply: 1.17

Task item: Quick one: AUUCACUGAGGUCAUCGGGUG [Fam2.2 aminoacylation ribozyme variant]
Reply: 7.22

Task item: Quick one: CCACACUUCAAGCCAUCGGUG [Fam1B.1 aminoacylation ribozyme variant]
Reply: 4.72
